- System: PCTK3;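 further: KINOMEscan kinase panel screen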
- Construct: gene CDK18
- CONDITION DETAILS: concentration: 1 μM, replicates: in singlicate; n = 1
%Inh values, listed per item
ASSAY READOUT: %Inh (%)

compound=Cn1ccc2ncnc(Oc3ccc(Nc4nc5ccccc5[nH]4)cc3)c21 assay_readout=%Inh unit_symbol=% readout_value=12
compound="COc1cccc(-c2cc(-c3c[nH]nc3-c3ccccn3)ccn2)c1 [GW680338]" assay_readout=%Inh unit_symbol=% readout_value=8
compound=Fc1cccc(COc2nnc(-c3ccc4c(c3)CCO4)o2)c1 assay_readout=%Inh unit_symbol=% readout_value=0
compound="Cc1cccc(-c2nc(C)cc(Nc3ccncc3)n2)n1 [GSK257997]" assay_readout=%Inh unit_symbol=% readout_value=15
